experimental target: T1, HLA-DR DRB1*0101 (human)
T1 chain 1: not shown
T1 chain 2: not shown
test details: radioligand inhibition, purified HLA-DR
experimental parameters: remark: other sources report otherwise
pIC50: −log10 of the molar value.
quantity kind: pIC50

Here is how some binders turned out for pIC50.
# binder, pIC50
data = [
    ("SITVSASGTSPGLSA [CEA.671 peptide 9919.0143]", 5.55),
    ("AKGLQSLPTHDPSPL [Peptide 9019.0098]", 6.83),
    ("ERGPLEHLYSLHIPN [Peptide 9019.0190]", 8.11),
    ("PERLAACGPPPVAPP [Peptide 9019.0179]", 7.55),
]

P = IEALLESSLRQAQQN [Cyclin D1.251]
Q = GVTVWELMTFGAKPY [Peptide 9019.0090]
Pick one: P or Q . Which has the bigger pIC50 number? Return value: the label identifying the chosen record.
Q

a = EGPLPAARPAGATLE [Peptide 9019.0101]
b = QYSWRINGIPQQHTQ [CEA.624 peptide 9019.0138]
Record comparison, field pIC50: mark the lower of a and b . Write the label of whichever entry you select.
a
(a: 4.76, b: 6.33)

A = NPQLCYQDTILWKDI [Her2/neu.158]
B = TMNMLGGGGSAGRKP [Peptide 9019.0184]
Which gives the smaller pIC50 number: A or B ? Please identify the chosen entry by its label.
A

1 = TTPVTGASPGGLREL [Her2/neu.126]
2 = PEYVNQPDVRPQPPS [Peptide 9019.0100]
Given 1 and given 2 , which shows the smaller recorded pIC50? Lab log: write the label of the selected item as the result.
2
(2: 5.21, 1: 6.00)
